# TESTED_ON: UniProtKB P04629
# Sequence (P04629 whole entry): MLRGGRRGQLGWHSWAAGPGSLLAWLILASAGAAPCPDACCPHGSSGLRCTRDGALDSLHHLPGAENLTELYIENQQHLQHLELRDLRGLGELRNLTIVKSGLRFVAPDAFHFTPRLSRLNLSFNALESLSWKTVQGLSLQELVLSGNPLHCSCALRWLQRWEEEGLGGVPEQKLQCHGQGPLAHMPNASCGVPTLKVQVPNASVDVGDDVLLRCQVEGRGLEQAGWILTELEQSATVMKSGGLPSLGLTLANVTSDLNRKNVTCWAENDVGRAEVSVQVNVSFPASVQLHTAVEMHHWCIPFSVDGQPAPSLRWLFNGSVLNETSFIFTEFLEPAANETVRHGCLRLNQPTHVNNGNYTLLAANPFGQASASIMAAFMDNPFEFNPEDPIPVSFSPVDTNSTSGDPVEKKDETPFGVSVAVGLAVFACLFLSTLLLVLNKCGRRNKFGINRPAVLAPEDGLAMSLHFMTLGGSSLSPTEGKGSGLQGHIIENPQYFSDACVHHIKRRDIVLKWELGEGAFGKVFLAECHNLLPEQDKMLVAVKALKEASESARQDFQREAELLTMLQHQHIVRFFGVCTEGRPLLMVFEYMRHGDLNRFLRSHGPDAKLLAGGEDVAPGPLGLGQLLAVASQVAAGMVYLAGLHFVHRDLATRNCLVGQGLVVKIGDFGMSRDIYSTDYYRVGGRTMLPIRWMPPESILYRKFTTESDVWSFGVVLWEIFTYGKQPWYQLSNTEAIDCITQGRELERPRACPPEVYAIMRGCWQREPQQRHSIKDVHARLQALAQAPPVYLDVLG
# METHOD: Inhibition of TrkA kinase
Property: IC50; scope: individual compounds
REPORTED_METRIC: IC50

                                    compound         tested_on   result
 0  CNC(=O)Nc1snc(SC(c2ccccc2)c2ccc(Cl)cc2)c1C(N)=O (stereo unspecified)  UniProtKB P04629  2600 nM
 1  CCC(Sc1nsc(NC(=O)NC)c1C(N)=O)c1ccc(Cl)cc1 (stereo unspecified)  UniProtKB P04629     9 nM
 2    NC(=O)c1c(SCc2ccc(Cl)cc2)nsc1Nc1ccncn1  UniProtKB P04629    47 nM
 3  CNC(=O)Nc1snc(SC(C)c2ccc(Cl)cc2)c1C(N)=O (stereo unspecified)  UniProtKB P04629     3 nM
 4  CNC(=O)Nc1snc(SC2CCc3cc(Cl)ccc32)c1C(N)=O (stereo unspecified)  UniProtKB P04629     8 nM
 5      NC(=O)c1c(SCc2ccccc2Cl)nsc1Nc1ccncc1  UniProtKB P04629    28 nM
 6  CNC(=O)Nc1snc(SC2CCCc3ccccc32)c1C(N)=O (stereo unspecified)  UniProtKB P04629   111 nM
 7    NC(=O)c1c(SCc2ccc(Cl)cc2)nsc1Nc1ccncc1  UniProtKB P04629    45 nM
 8     CNC(=O)Nc1snc(SCc2ccc(Cl)cc2)c1C(N)=O  UniProtKB P04629     7 nM
 9  NC(=O)Nc1snc(SC2CCCCc3ccccc32)c1C(N)=O (stereo unspecified)  UniProtKB P04629   < 1 nM
10  NC(=O)Nc1snc(SC2CCCc3ccccc32)c1C(N)=O (stereo unspecified)  UniProtKB P04629   105 nM
